target: TLR7 (Homo sapiens (Human)); test: TLR7 human peripheral blood mononuclear cell (PBMC) cell-based assay (GS-986 as agonist; IL-6 and IFNα readout); conditions: human PBMCs, TLR7 agonist GS-986 at 400 nM, 6 hours, antagonist potency; read-out: TLR-7 EC50
Sequence (Q9NYK1 27-1049): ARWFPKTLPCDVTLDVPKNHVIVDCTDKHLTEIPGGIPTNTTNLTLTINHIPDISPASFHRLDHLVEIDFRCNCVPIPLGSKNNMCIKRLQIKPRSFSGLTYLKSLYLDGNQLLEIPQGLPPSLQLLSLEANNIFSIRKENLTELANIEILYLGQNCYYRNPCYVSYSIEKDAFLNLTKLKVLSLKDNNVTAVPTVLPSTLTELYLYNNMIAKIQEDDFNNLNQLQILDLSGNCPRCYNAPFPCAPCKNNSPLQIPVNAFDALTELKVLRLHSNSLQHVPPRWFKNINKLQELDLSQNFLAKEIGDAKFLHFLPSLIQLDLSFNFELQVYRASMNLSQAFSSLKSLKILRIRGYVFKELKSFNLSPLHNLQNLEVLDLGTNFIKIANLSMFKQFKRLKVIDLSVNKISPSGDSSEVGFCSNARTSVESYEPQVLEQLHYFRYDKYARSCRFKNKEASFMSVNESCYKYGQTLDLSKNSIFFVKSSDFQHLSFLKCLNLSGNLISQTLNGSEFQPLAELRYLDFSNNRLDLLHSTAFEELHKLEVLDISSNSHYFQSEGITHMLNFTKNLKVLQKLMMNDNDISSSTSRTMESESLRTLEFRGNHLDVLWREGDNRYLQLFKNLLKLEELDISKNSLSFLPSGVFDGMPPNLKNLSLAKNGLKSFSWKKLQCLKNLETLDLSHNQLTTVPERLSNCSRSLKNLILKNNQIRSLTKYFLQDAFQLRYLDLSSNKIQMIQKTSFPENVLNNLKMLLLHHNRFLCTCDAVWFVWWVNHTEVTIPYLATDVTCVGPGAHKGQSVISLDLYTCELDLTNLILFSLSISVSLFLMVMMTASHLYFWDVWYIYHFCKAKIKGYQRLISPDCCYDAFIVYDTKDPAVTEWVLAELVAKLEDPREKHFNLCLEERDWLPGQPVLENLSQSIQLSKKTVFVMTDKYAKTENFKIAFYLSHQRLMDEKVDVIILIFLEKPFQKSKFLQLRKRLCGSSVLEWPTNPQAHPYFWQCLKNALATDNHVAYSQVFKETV
pEC50: −log10 of the molar value.
quantity measured: pEC50

Below are worked cases with known answers.
**Query** Lab request: please report pEC50 under test system TLR7 (Homo sapiens (Human)) for Cc1nc2c(C)cc(-c3[nH]c4sc([C@@H]5C[C@@H]6C[C@H]5CN6CC(N)=O)c(C)c4c3C(C)C)cn2n1 [Example 121]
**Result** > 10.30

**Query** Repeat with Cc1c(-c2[nH]c3sc([C@@H]4C[C@@H]5C[C@H]4CN5Cc4c[nH]nn4)c(C)c3c2C(C)C)cn2ncnc2c1C [Example 174]
**Result** > 10.30

Others:
**Query** Lab request: please report pEC50 under test system TLR7 (Homo sapiens (Human)) for Cc1c(-c2[nH]c3sc([C@@H]4C[C@@H]5C[C@H]4CN5Cc4cccc(=O)[nH]4)c(C)c3c2C(C)C)cn2ncnc2c1C [Example 170]
**Result** > 10.30

Recorded values, source patent US11661431B2.
